# Test system: Escherichia coli IAI1
# method-description: growth (OD595) fold change vs plate DMSO controls (fold change (ratio)); higher = more growth
# test-parameters: 20 µM; incubation time: 27 h, anaerobic, 37 °C
Counter-ions that a name gives are not always drawn.
Property: growth; scope: individual molecules

molecule	growth
O=C(NC(=O)c1c(F)cccc1F)Nc1ccc(OC(F)(F)C(F)OC(F)(F)F)c(Cl)c1 (stereo unspecified)	1.03
Cc1cccc(C)c1NC(=O)CN1CCCC1=O	0.985
N#Cc1c(Cl)c(Cl)c(Cl)c(C#N)c1Cl	1.02
O=C(Nc1ccc(F)cc1F)c1cccnc1Oc1cccc(C(F)(F)F)c1	1.02
CNC(C)(C)Cc1ccccc1 [Mephentermine hemisulfate]	0.976
CC(=O)OCC(=O)[C@H]1CC[C@H]2[C@@H]3CC[C@H]4C[C@H](O)CC[C@]4(C)[C@H]3C(=O)C[C@]12C [Alfadolone acetate]	1.26
CO/C=C(/C(=O)OC)c1ccccc1COc1cccc(C(F)(F)F)n1	1.03
CCC(=O)Nc1ccc(Cl)c(Cl)c1	0.949
C[C@@H]1[C@@H](c2ccc(Cl)cc2)SC(=O)N1C(=O)NC1CCCCC1	1.08
CC(C)OC(=O)Nc1cccc(Cl)c1	1.04
CCCCCCCCCCCCN=C(N)N	0.995
Clc1ccc(C(OCCN2CCCCC2)c2ccccc2)cc1 (stereo unspecified) [Cloperastine hydrochloride]	1.07
CNCC(O)c1ccc(O)cc1 (stereo unspecified) [Synephrine]	1.09
CC(COc1ccc(Oc2ccccc2)cc1)Oc1ccccn1 (stereo unspecified)	0.987
C[C@]12CCC(=O)C(O)=C1CC[C@@H]1[C@@H]2CC[C@]2(C)C(=O)CC[C@@H]12	0.965
CS(=O)(=O)c1cc(C(F)(F)F)ccc1C(=O)c1cnoc1C1CC1	1.09
CC(C)(C)c1ccc(CSc2cnn(C(C)(C)C)c(=O)c2Cl)cc1	0.995
CC1(C)C(C=C(Cl)Cl)C1C(=O)OC(C#N)c1cccc(Oc2ccccc2)c1 (mixture of isomers)	1.01
CCCC1COC(Cn2cncn2)(c2ccc(Cl)cc2Cl)O1 (stereo unspecified)	1.03
C[C@]12CC[C@H](O)C[C@H]1CC[C@@H]1[C@@H]2C[C@@H](O)[C@]2(C)[C@@H](C3=CC(=O)OC3)CC[C@]12O	1.07
CC(C)c1c(CN(C)C(C)Cc2ccccc2)n(C)n(-c2ccccc2)c1=O (stereo unspecified)	1.15

###

# Tested on: Klebsiella aerogenes DSM 30053
# method-description: fold change of Histamine concentration vs plate DMSO controls (fold change (ratio)); higher = more amine produced, active = hit call of the paper (significant change in both replicates, either direction)
# test-parameters: 20 µM; incubation time: 27 h, anaerobic, 37 °C
Counter-ions that a name gives are not always drawn.
Property: fold change of Histamine concentration; scope: individual compounds

compound	fold change of Histamine concentration
N#Cc1nn(-c2c(Cl)cc(C(F)(F)F)cc2Cl)c(N)c1[S+]([O-])C(F)(F)F (configuration not stated)	1.1
CC[C@H]1CCC[C@H](O[C@H]2CC[C@H](N(C)C)[C@@H](C)O2)[C@@H](C)C(=O)C2=C[C@@H]3[C@@H](C=C(C)[C@@H]4C[C@@H](O[C@@H]5O[C@@H](C)[C@H](OC)[C@@H](OC)[C@H]5OC)C[C@@H]34)[C@@H]2CC(=O)O1.CC[C@H]1CCC[C@H](O[C@H]2CC[C@H](N(C)C)[C@@H](C)O2)[C@@H](C)C(=O)C2=C[C@H]3[C@@H]4C[C@H](O[C@@H]5O[C@@H](C)[C@H](OC)[C@@H](OC)[C@H]5OC)C[C@H]4C=C[C@H]3C2CC(=O)O1	0.93
C#C[C@]1(O)CC[C@H]2[C@@H]3CCC4=CC(=O)CCC4=C3C=C[C@@]21CC [Gestrinone]	0.947
Cc1ccc(/N=C/N(C)/C=N/c2ccc(C)cc2C)c(C)c1	1.03
Oc1ccccc1-c1ccccc1	0.959
C[N+](C)(C)CCCl	1.01
CCC(C)(C)C(=O)OC1=C(c2ccc(Cl)cc2Cl)C(=O)OC12CCCCC2	0.967
COc1ccc(OC)c(C(O)C(C)N)c1 (configuration not stated) [Methoxamine hydrochloride]	1.06
NCC(O)c1ccc(O)cc1 (configuration not stated) [Octopamine hydrochloride]	1.04
CCC(C)(c1ccc(O)cc1)c1ccc(O)cc1 [Bisphenol B]	1.06
c1ccc2c(c1)cc1ccc3cccc4ccc2c1c34 [Benzo[a]pyrene]	0.948
O=c1[nH]c2ccccc2n1C1CCN(CCCC(c2ccc(F)cc2)c2ccc(F)cc2)CC1 [Pimozide]	1.01
Cc1cc(C(F)(C(F)(F)F)C(F)(F)F)ccc1NC(=O)c1cccc(I)c1C(=O)NC(C)(C)CS(C)(=O)=O	1
C[N+]1(C)CCCC(OC(=O)C(O)(c2ccccc2)c2ccccc2)C1 (configuration not stated) [Mepenzolate bromide]	0.962
S=C(NC1CCCCC1)N1CCC(c2cnc[nH]2)CC1 [Thioperamide maleate]	1.07
CCC(COC(=O)c1cc(OC)c(OC)c(OC)c1)(c1ccccc1)N(C)C (configuration not stated) [Trimebutine]	0.944
NC(=O)C[S+]([O-])C(c1ccccc1)c1ccccc1 (configuration not stated) [Modafinil]	0.949

###

# System: Clostridium sporogenes DSM 1664
# method-description: fold change of Tryptamine concentration vs plate DMSO controls (fold change (ratio)); higher = more amine produced, active = hit call of the paper (significant change in both replicates, either direction)
# test-parameters: 20 µM; incubation time: 27 h, anaerobic, 37 °C
Counter-ions that a name gives are not always drawn.
Property: fold change of Tryptamine concentration; scope: individual compounds

compound	fold change of Tryptamine concentration
S=C(NC1CCCCC1)N1CCC(c2cnc[nH]2)CC1 [Thioperamide maleate]	1.05 (inactive)
O=C(O)C(F)(F)C(F)(F)C(F)(F)C(F)(F)C(F)(F)C(F)(F)C(F)(F)F [PFOA (Perfluorooctanoic acid)]	0.979 (inactive)
CC(N)C(O)c1ccccc1 (centres undefined) [Phenylpropanolamine hydrochloride]	1.22 (inactive)
O=P(Oc1ccccc1)(Oc1ccccc1)Oc1ccccc1 [Triphenyl PO4]	1.16 (inactive)
CCCN(CCC)N=O [NDPA (N-nitrosodipropylamine)]	1.03 (inactive)
O=C(Nc1ccccc1-c1ccc(Cl)cc1)c1cccnc1Cl	0.954 (inactive)
COc1ncc(F)c2nc(S(=O)(=O)Nc3c(F)cccc3F)nn12	1.04 (inactive)
CCCN(CCOc1c(Cl)cc(Cl)cc1Cl)C(=O)n1ccnc1	1.05 (inactive)
O=C(O)CNCP(=O)(O)O	0.931 (inactive)
c1ccc2c(c1)cc1ccc3cccc4ccc2c1c34 [Benzo[a]pyrene]	1.03 (inactive)
COc1cc([C@@H]2c3cc4c(cc3[C@H](O)[C@H]3COC(=O)[C@H]23)OCO4)cc(OC)c1OC [Podophyllotoxin]	1.01 (inactive)
CC[C@H](C)C1O[C@]2(C=C[C@@H]1C)C[C@@H]1C[C@@H](C/C=C(\C)[C@@H](O[C@H]3C[C@H](OC)[C@@H](O[C@H]4C[C@H](OC)[C@H](NC)[C@H](C)O4)[C@H](C)O3)[C@@H](C)/C=C/C=C3\CO[C@@H]4[C@H](O)C(C)=C[C@@H](C(=O)O1)[C@]34O)O2 (some centres undefined)	0.823 (inactive)
c1ccc2c(c1)OCC(C1=NCCN1)O2 (centres undefined) [Idazoxan hydrochloride]	0.976 (inactive)
Cc1cc(C2CC2)nc(Nc2ccccc2)n1	0.966 (inactive)
O=[N+]([O-])c1ccc2ccc3cccc4ccc1c2c34 [1-Nitropyrene]	0.785 (inactive)
C=C1CC[C@@]2(O)[C@H]3Cc4ccc(O)c5c4[C@@]2(CCN3CC2CC2)[C@H]1O5 [Nalmefene hydrochloride]	0.942 (inactive)
OC(Cc1ccccc1Cl)(Cn1nc[nH]c1=S)C1(Cl)CC1 (centres undefined)	1.02 (inactive)
CNC(=O)ON=C(C)SC	1.06 (inactive)
N#Cc1c(Cl)c(Cl)c(Cl)c(C#N)c1Cl	0.995 (inactive)

###

Property: fold change of Tryptamine concentration; scope: individual compounds
# System: Clostridium sporogenes DSM 1664
# method-description: fold change of Tryptamine concentration vs plate DMSO controls (fold change (ratio)); higher = more amine produced, active = hit call of the paper (significant change in both replicates, either direction)
# test-parameters: 20 µM; incubation time: 27 h, anaerobic, 37 °C
Counter-ions that a name gives are not always drawn.
quantity-kind: fold change of Tryptamine concentration

compound	quantity-kind	recorded-number
CCNCC(O)c1cccc(O)c1 (configuration not stated) [Etilefrine hydrochloride]	fold change of Tryptamine concentration	1.03
CC(C)CC(N(C)C)C1(c2ccc(Cl)cc2)CCC1 (configuration not stated) [Sibutramine hydrochloride]	fold change of Tryptamine concentration	0.976
CNC(C)(C)Cc1ccccc1 [Mephentermine hemisulfate]	fold change of Tryptamine concentration	1.04
Nc1nc(N)nc(N)n1 [Melamine]	fold change of Tryptamine concentration	1.05
COC(=O)N(OC)c1ccccc1COc1ccn(-c2ccc(Cl)cc2)n1	fold change of Tryptamine concentration	1.02
NCC1(CC(=O)O)CCCCC1 [Gabapentin]	fold change of Tryptamine concentration	0.986
O=C(O)c1nc(Cl)ccc1Cl	fold change of Tryptamine concentration	0.99
CC1(C)[C@H](/C=C(\Cl)C(F)(F)F)[C@@H]1C(=O)OC(C#N)c1cccc(Oc2ccccc2)c1 (some centres not stated)	fold change of Tryptamine concentration	0.918
CC(C)N1C(=O)N(c2ccccc2)CS/C1=N\C(C)(C)C	fold change of Tryptamine concentration	1.03
CC(C)(C)NCC(O)c1ccccc1Cl (configuration not stated) [Tulobuterol Hydrochloride]	fold change of Tryptamine concentration	1
C#C[C@]1(O)CC[C@H]2[C@@H]3CCC4=CC(=O)CC[C@]4(C)[C@H]3CC[C@@]21C [Ethisterone]	fold change of Tryptamine concentration	1.02
CCOc1cc(Oc2ccc(C(F)(F)F)cc2Cl)ccc1[N+](=O)[O-]	fold change of Tryptamine concentration	1.06
CN1[C@@H]2C[C@@H](OC(=O)[C@H](CO)c3ccccc3)C[C@H]1[C@@H]1O[C@@H]12 [Scopolamine hydrochloride]	fold change of Tryptamine concentration	1.2
CC1(C)C(C(=O)OC(C#N)c2cccc(Oc3ccccc3)c2)C1(C)C (configuration not stated)	fold change of Tryptamine concentration	1.06
CC[C@H]1CCC[C@H](O[C@H]2CC[C@H](N(C)C)[C@@H](C)O2)[C@@H](C)C(=O)C2=C[C@@H]3[C@@H](C=C(C)[C@@H]4C[C@@H](O[C@@H]5O[C@@H](C)[C@H](OC)[C@@H](OC)[C@H]5OC)C[C@@H]34)[C@@H]2CC(=O)O1.CC[C@H]1CCC[C@H](O[C@H]2CC[C@H](N(C)C)[C@@H](C)O2)[C@@H](C)C(=O)C2=C[C@H]3[C@@H]4C[C@H](O[C@@H]5O[C@@H](C)[C@H](OC)[C@@H](OC)[C@H]5OC)C[C@H]4C=C[C@H]3C2CC(=O)O1	fold change of Tryptamine concentration	0.96
CCCCN(CCCC)N=O [DBNA (N-nitrosodibutylamine)]	fold change of Tryptamine concentration	1.01
Cc1nc(N(C)C)nc(OC(=O)N(C)C)c1C	fold change of Tryptamine concentration	1.12
NC(=O)CN1CC(O)CC1=O (configuration not stated) [Oxiracetam]	fold change of Tryptamine concentration	1.14
CC(COc1ccc(Oc2ccccc2)cc1)Oc1ccccn1 (configuration not stated)	fold change of Tryptamine concentration	1.02
COP(=O)(OC)OC=C(Cl)Cl	fold change of Tryptamine concentration	1.05
C[N+]1([O-])[C@@H]2C[C@@H](OC(=O)[C@H](CO)c3ccccc3)C[C@H]1[C@@H]1O[C@@H]12 (some centres not stated) [Scopolamin-N-oxide hydrobromide]	fold change of Tryptamine concentration	1.01
Cc1cc(C)nc(Nc2ccccc2)n1	fold change of Tryptamine concentration	1
CC(O)(CS(=O)(=O)c1ccc(F)cc1)C(=O)Nc1ccc(C#N)c(C(F)(F)F)c1 (configuration not stated) [Bicalutamide]	fold change of Tryptamine concentration	1.09
CCN[C@@H](C)Cc1cccc(C(F)(F)F)c1 [Dexfenfluramine hydrochloride]	fold change of Tryptamine concentration	1.28
CO/C=C(/C(=O)OC)c1ccccc1COc1cccc(C(F)(F)F)n1	fold change of Tryptamine concentration	1.02
O=[N+]([O-])O[C@H]1CO[C@H]2[C@@H]1OC[C@H]2O[N+](=O)[O-] [Isosorbide dinitrate]	fold change of Tryptamine concentration	1.03
O=C(O[C@H]1C[N+]2(CCCOc3ccccc3)CCC1CC2)C(O)(c1cccs1)c1cccs1 [Aclidinium bromide]	fold change of Tryptamine concentration	1.01
NC(=O)OCCCc1ccccc1 [Phenprobamate]	fold change of Tryptamine concentration	0.987
CNC(=O)/C=C(\C)OP(=O)(OC)OC	fold change of Tryptamine concentration	1.05
O=C(O)C(F)(F)C(F)(F)C(F)(F)C(F)(F)C(F)(F)C(F)(F)F [PFHpA (Perfluoroheptanoic acid)]	fold change of Tryptamine concentration	1.06
CCCC(C)C1(CC)C(=O)NC(=O)NC1=O (configuration not stated) [Pentobarbital]	fold change of Tryptamine concentration	0.993
CC(C)CC(C)c1sccc1NC(=O)c1cn(C)nc1C(F)(F)F (configuration not stated)	fold change of Tryptamine concentration	0.935
NCC(O)c1ccc(O)cc1 (configuration not stated) [Octopamine hydrochloride]	fold change of Tryptamine concentration	1.04
CCCC1COC(Cn2cncn2)(c2ccc(Cl)cc2Cl)O1 (configuration not stated)	fold change of Tryptamine concentration	1.04
CNC(=O)CSP(=S)(OC)OC	fold change of Tryptamine concentration	1.01
CCNC1(c2cccs2)CCCCC1=O (configuration not stated) [Tiletamine hydrochloride]	fold change of Tryptamine concentration	1.04
CC(C)(C)C(O)(CCc1ccc(Cl)cc1)Cn1cncn1 (configuration not stated)	fold change of Tryptamine concentration	1.24
